Where do the numbers come from? From patent US4443448A.

Test system: methylphenidate
Experiment: Methylphenidate antagonism in mice
Assay type: in vivo
Settings: Mus musculus, ip, 2 h, read-out: MePh antag. ED50 2 hr i.p., mice, test substance i.p., 2 hr before methylphenidate 60 mg/kg s.c.
Doc: threshold 1 mg/kg (exclusive). Items with ED50 beneath it return condition met; others return condition not met.

                                   compound       answer_label
0  CC(C)N1CCN(C2CC(c3ccc(F)cc3)c3ccc(F)cc32)CC1 (centres unmarked)  condition not met
1  CN1CCN([C@@H]2C[C@H](c3ccc(F)cc3)c3ccc(Cl)cc32)CC1 (relative stereo)  condition not met
2  OCCCCN1CCN([C@@H]2C[C@@H](c3ccc(F)cc3)c3ccc(F)cc32)CC1 (relative stereo)  condition not met

stdin: Say whether its ED50 is strictly beneath 1 mg/kg. Entry: CN1CCN([C@@H]2C[C@@H](c3ccccc3)c3ccccc32)CC1 (relative stereo)
stdout: condition not met

stdin: Say whether its ED50 is strictly beneath 1 mg/kg. Entry: OCCN1CCN([C@@H]2C[C@H](c3ccc(F)cc3)c3ccccc32)CC1 (relative stereo)
stdout: condition not met

stdin: Say whether its ED50 is strictly beneath 1 mg/kg. Entry: CN1CCN(C2CC(c3ccc(F)cc3)c3ccc(C(F)(F)F)cc32)CC1 (centres unmarked)
stdout: condition not met

stdin: Say whether its ED50 is strictly beneath 1 mg/kg. Entry: OCCN1CCN([C@@H]2C[C@@H](c3ccccc3)c3ccccc32)CC1 (relative stereo)
stdout: condition not met

---

Experiment: in vivo
Design: species or system rats
Conditions: rat, in vivo, po, Catalep. (catalepsy wire mesh, rat, max, ED50)
ATTRIBUTE_MEASURED: ED50 (mg/kg)
Kindly answer with a numeric value in mg/kg, unit omitted.

Looking up OCCN1CCN(C2CC(c3ccc(F)cc3)c3ccc(C(F)(F)F)cc32)CC1 (stereo not shown) [Lu 18-012] , I found its ED50 recorded as 0.3

---

Experiment: in vivo
Parameters: species or system rats
Details: rat, in vivo, po, rats, p.o., strongest effect within first 6 hours; read-out: Catalep. (catalepsy wire mesh, rat, max, ED50)
ATTRIBUTE_MEASURED: ED50 (mg/kg)
Kindly answer with a numeric value in mg/kg, unit omitted.

In [3]: df
Out[3]:
                                   compound  numeric_readout
0  CSc1ccc2c(c1)[C@H](N1CCN(C)CC1)C[C@H]2c1ccc(F)cc1 (relative stereo) [Lu 17-055]              7.2
1  CSc1ccc2c(c1)C(N1CCN(CCCO)CC1)CC2c1ccc(F)cc1 (centres unmarked) [Lu 17-068]              1.3
2  Cc1ccc2c(c1)C(N1CCN(C(C)C)CC1)CC2c1ccc(F)cc1 (centres unmarked) [Lu 17-069]              6.7
3  COc1ccc2c(c1)C(N1CCN(CCO)CC1)CC2c1ccc(F)cc1 (centres unmarked) [Lu 18-006]               12
4  OCCN1CCN(CCCN2c3ccccc3Sc3ccc(C(F)(F)F)cc32)CC1 [fluphenazine, reference compound]              0.3
5  OCCCCN1CCN(C2CC(c3ccc(F)cc3)c3ccc(C(F)(F)F)cc32)CC1 (centres unmarked) [Lu 18-182]              0.2
6  OCCCN1CCN([C@@H]2C[C@@H](c3ccc(F)cc3)c3ccc(F)cc32)CC1 (relative stereo) [Lu 14-036]              3.7
7  CN1CCN([C@@H]2C[C@@H](c3ccc(F)cc3)c3ccc(F)cc32)CC1 (relative stereo) [Lu 13-092]               81
8  OCCN1CCN([C@@H]2C[C@@H](c3ccc(F)cc3)c3ccc(F)cc32)CC1 (relative stereo) [Lu 13-117]               79
9  Fc1ccc(C2CC(N3CCN(CC4CCCCC4)CC3)c3cc(F)ccc32)cc1 (centres unmarked) [Lu 17-100]               40

Please examine the following record next.
Looking up CSc1ccc2c(c1)[C@H](N1CCN(CCO)CC1)C[C@H]2c1ccc(F)cc1 (relative stereo) [Lu 17-053] , I found its ED50 recorded as 6.2

---

Test: in vivo
Details: iv
ATTRIBUTE_MEASURED: LD50 (mg/kg)
Kindly answer with a numeric value in mg/kg, unit omitted.

Please review the entries below; each comes with its answer.
>>> df
                                   compound  numeric_readout
0  OCCN1CCN([C@@H]2C[C@@H](c3ccc(F)cc3)c3cc(F)ccc32)CC1 (relative stereo)               80
1  CC(C)N1CCN(C2CC(c3ccc(F)cc3)c3ccc(Cl)cc32)CC1 (stereo not drawn)               80
2  CSc1ccc2c(c1)C(N1CCN(C(C)C)CC1)CC2c1ccc(F)cc1 (stereo not drawn)               69

Looking up OCCCCN1CCN([C@@H]2C[C@@H](c3ccc(F)cc3)c3ccc(F)cc32)CC1 (relative stereo) , I found its LD50 recorded as 80

Looking up CSc1ccc2c(c1)C(N1CCN(CCCO)CC1)CC2c1ccc(F)cc1 (stereo not drawn) , I found its LD50 recorded as 94

Looking up CN1CCN(C2CC(c3ccc(F)cc3)c3ccc(S(C)(=O)=O)cc32)CC1 (stereo not drawn) , I found its LD50 recorded as 130

---

Test: in vivo
Design: species or system rats
Settings: catalepsy ED50 / amphetamine antagonism ED50
ATTRIBUTE_MEASURED: Ratio catalep./Amphet.
Please reply with the number alone, leaving off any unit.

Please review the entries below; each comes with its answer.
In [3]: df
Out[3]:
                                   molecule  numeric_readout
0  CN1CCN(C2CC(c3ccc(F)cc3)c3ccc(S(C)(=O)=O)cc32)CC1 (stereo not shown) [Lu 18-040]              0.8
1  CC(C)c1ccc2c(c1)C(N1CCN(CCO)CC1)CC2c1ccc(F)cc1 (stereo not shown) [Lu 18-020]              0.8

Looking up Cc1ccc2c(c1)[C@H](N1CCN(CCO)CC1)C[C@H]2c1ccc(F)cc1 (relative stereo) [Lu 17-050] , I found its Ratio catalep./Amphet. recorded as 0.8

Looking up OCCN1CCN(C2CC(c3ccc(F)cc3)c3ccc(C(F)(F)F)cc32)CC1 (stereo not shown) [Lu 18-012] , I found its Ratio catalep./Amphet. recorded as 2

---

Tested on: methylphenidate
Assay: Methylphenidate antagonism in mice
Type: in vivo
Conditions: Mus musculus, ip, 2 h, read-out: MePh antag. ED50 2 hr i.p., mice, test substance i.p., 2 hr before methylphenidate 60 mg/kg s.c.
Doc: threshold 4 mg/kg (exclusive). Items with ED50 beneath it return yes; others return no.

>>> df
                                   compound  answer_label
0  Fc1ccc(C2CC(N3CCN(CCc4ccccc4)CC3)c3cc(F)ccc32)cc1 (stereo not shown)            no
1  CSc1ccc2c(c1)[C@H](N1CCN(C)CC1)C[C@@H]2c1ccc(F)cc1 (relative stereo)            no
2  CSc1ccc2c(c1)[C@H](N1CCN(CCO)CC1)C[C@H]2c1ccc(F)cc1 (relative stereo)           yes
3  CN1CCN(C2CC(c3ccc(F)cc3)c3ccc(S(C)(=O)=O)cc32)CC1 (stereo not shown)            no
4  OCC(O)CN1CCN(C2CC(c3ccc(F)cc3)c3ccc(F)cc32)CC1 (single isomer, unassigned)           yes
5  O=C(CCCN1CCN(C2CC(c3ccc(F)cc3)c3ccc(F)cc32)CC1)c1ccc(F)cc1 (stereo not shown)            no
6  Fc1ccc(C2CC(N3CCN(CC4CC4)CC3)c3cc(F)ccc32)cc1 (stereo not shown)            no
7  CN1CCN([C@@H]2C[C@@H](c3ccc(F)cc3)c3ccc(F)cc32)CC1 (relative stereo)            no

stdin: Say whether its ED50 is strictly beneath 4 mg/kg. Entry: CC(C)c1ccc2c(c1)C(N1CCN(CCO)CC1)CC2c1ccc(F)cc1 (stereo not shown)
stdout: no

stdin: Say whether its ED50 is strictly beneath 4 mg/kg. Entry: OCCN1CCN([C@@H]2C[C@@H](c3ccc(F)cc3)c3ccc(Cl)cc32)CC1 (relative stereo)
stdout: yes

stdin: Say whether its ED50 is strictly beneath 4 mg/kg. Entry: CC(C)N1CCN(C2CC(c3ccc(F)cc3)c3ccc(C(F)(F)F)cc32)CC1 (stereo not shown)
stdout: yes

stdin: Say whether its ED50 is strictly beneath 4 mg/kg. Entry: Cc1ccc2c(c1)[C@H](N1CCN(CCO)CC1)C[C@H]2c1ccc(F)cc1 (relative stereo)
stdout: yes
